Recorded values, source ChEMBL document CHEMBL3639007.

Target: Corticotropin-releasing factor receptor 1 (Homo sapiens)
Sequence (P34998 whole entry): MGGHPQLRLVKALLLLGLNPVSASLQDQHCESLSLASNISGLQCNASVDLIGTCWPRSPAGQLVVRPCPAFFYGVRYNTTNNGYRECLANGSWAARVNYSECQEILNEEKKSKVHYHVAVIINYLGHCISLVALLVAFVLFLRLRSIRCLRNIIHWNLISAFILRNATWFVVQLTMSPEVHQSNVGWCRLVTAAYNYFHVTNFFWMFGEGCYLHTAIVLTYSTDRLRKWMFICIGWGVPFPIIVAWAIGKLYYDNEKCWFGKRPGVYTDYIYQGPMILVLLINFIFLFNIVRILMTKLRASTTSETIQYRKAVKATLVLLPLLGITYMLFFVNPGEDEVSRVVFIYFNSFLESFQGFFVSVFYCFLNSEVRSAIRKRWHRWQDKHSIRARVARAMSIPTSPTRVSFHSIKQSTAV
Test: Homogeneous Time-Resolved Fluorescence Assay: Chinese hamster ovary (CHO) cells expressing either the human or rat recombinant CRF-1 or human CRF-2alpha (Chen et al, Proc Natl Acad Sci USA 90, 8967-8971, 1993; Liaw et al, Endocrinology 137, 72-77, 1996) are propagated in Dulbecco's modified Eagle medium supplemented with 10% foetal calf serum, non-essential amino acids, 100 U/ml penicillin, 100 mg/l streptomycin and 1 g/l geneticin. CHO cells expressing the rat CRF-2beta receptor (Wu et al, Endocrinology 148, 1675-1687, 2007) are propagated in HAM's-F12 Glutamax supplemented with 10% foetal calf serum, 100 IU/ml penicillin, 100 mg/l streptomycin, 600 ug/ml hygromycin, 10 ug/ml blasticidin and induced with 1 ug/ml of tetracyclin for 24 hours prior to experimentation. For cyclic AMP determinations the Homogeneous Time-Resolved Fluoresce (HTRF) CAMP dynamic 2 kit (Cisbio International, France) was used as per manufacturers' instructions.
Measure: IC50 (nM)
Dear colleague, please return just the value in nM, with no unit written.

These recorded examples may help you get a feel for the data.
{"columns": ["Smiles Str", "Units", "Observed Result"],
 "data": [
  ["COc1ccc(-c2c(NC[C@H]3CC[C@H](NC(=O)c4cc(C(F)(F)F)ccc4Cl)CC3)n[nH]c2C)c(Cl)c1", "nM", 35],
  ["Cc1ncc(Cl)cc1C(=O)N[C@H]1CC[C@H](Cn2nc(C)c(Cl)c2C)CC1", "nM", 256],
  ["COc1ccc(-c2cc(C)n(C[C@H]3CC[C@H](NC(=O)c4cc(C(F)(F)F)ccc4Cl)CC3)n2)cc1", "nM", 82]
]}

Tell me the measured IC50 of `Cc1ncc(Cl)cc1C(=O)N[C@H]1CC[C@H](Cn2nc(-c3cccnc3)cc2C)CC1` , please.
142

Tell me the measured IC50 of `Cc1ncc(Cl)cc1C(=O)N[C@H]1CC[C@H](Cn2cc3c(n2)CCCC3)CC1` , please.
318

Tell me the measured IC50 of `O=C(N[C@H]1CC[C@H](Cn2ncc3c2CCC3)CC1)c1cc(C(F)(F)F)ccc1Cl` , please.
170

Tell me the measured IC50 of `Cc1cc(-c2ccc3c(c2)OCO3)nn1C[C@H]1CC[C@H](NC(=O)c2cc(C(F)(F)F)ccc2Cl)CC1` , please.
59

Tell me the measured IC50 of `CCc1cc(C)nn1C[C@H]1CC[C@H](NC(=O)c2cc(C(F)(F)F)ccc2Cl)CC1` , please.
22

Tell me the measured IC50 of `Cc1ncc(Cl)cc1C(=O)N[C@H]1CC[C@@H](Cn2nc(-c3ccc(F)cc3)cc2C)CC1` , please.
180

Tell me the measured IC50 of `Cc1cnn(C[C@H]2CC[C@H](NC(=O)c3cc(C(F)(F)F)ccc3Cl)CC2)c1` , please.
132
